Origin of values: paper PMC4974476

Molecular target: LIN54 DBD-C (Homo sapiens, UniProt Q6MZP7 589-646)
Sequence (Q6MZP7 589-646): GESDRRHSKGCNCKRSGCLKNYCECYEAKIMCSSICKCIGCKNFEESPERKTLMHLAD
Assay: NMR HSQC titration; 35 mM MES, 75 mM NaCl, pH 6.0, 25 C; ITC (25 C) and FP: 20 mM Tris, 150 mM NaCl, 0.1% Tween 20, pH 8.0; NMR: 35 mM MES, 75 mM NaCl, 5% D2O, pH 6.0, 25 C
Conditions: protein: recombinant; tags: N-terminal GST with TEV site, cleaved; blunt
Measured property: Kd (µM)

[
  {
    "Binder": "CHR13 (dsDNA) DNA 1: GAGTTTGAAACTG DNA 2: CAGTTTCAAACTC",
    "Units label": "µM",
    "Result number": 500
  }
]
